Reported values of relative viability for individual entries
- System: EKVX
- Measurement description: relative viability (nuclei count vs DMSO), 5 days (fraction); higher = more cells survive
- Experimental parameters: first compound 0.2 µM

Molecule | relative viability
CCNC(=O)c1noc(-c2cc(C(C)C)c(O)cc2O)c1-c1ccc(CN2CCOCC2)cc1 [Luminespib] + O=C(CCCCCCC(=O)Nc1ccccc1)NO [Vorinostat] (partner 1 µM) | 0.572
CCNC(=O)c1noc(-c2cc(C(C)C)c(O)cc2O)c1-c1ccc(CN2CCOCC2)cc1 [Luminespib] + N=C(N)NC(=N)NCCc1ccccc1 [Phenformin] (partner 250 µM) | 0.104
CCNC(=O)c1noc(-c2cc(C(C)C)c(O)cc2O)c1-c1ccc(CN2CCOCC2)cc1 [Luminespib] + C[C@]1(O)C[C@@H](c2nc(-c3ccc4ccc(-c5ccccc5)nc4c3)c3c(N)nccn32)C1 [Linsitinib] (partner 1 µM) | 0.179

----------
- Test system: NCI-H1395
- Measurement description: relative viability (nuclei count vs DMSO), 5 days (fraction); higher = more cells survive
- Experimental parameters: first compound 0.01 µM
Catalogue of compounds with associated relative viability

Compound | relative viability
Cc1cn(-c2cc(NC(=O)c3ccc(C)c(Nc4nccc(-c5cccnc5)n4)c3)cc(C(F)(F)F)c2)cn1 [Nilotinib] + COc1cc2c(Oc3ccc(NC(=O)C4(C(=O)Nc5ccc(F)cc5)CC4)cc3F)ccnc2cc1OCCCN1CCOCC1 [Foretinib] (partner 0.25 µM) | 0.953
Cc1cn(-c2cc(NC(=O)c3ccc(C)c(Nc4nccc(-c5cccnc5)n4)c3)cc(C(F)(F)F)c2)cn1 [Nilotinib] + CC(=O)Nc1cccc(-n2c(=O)n(C3CC3)c(=O)c3c(Nc4ccc(I)cc4F)n(C)c(=O)c(C)c32)c1 [Trametinib] (partner 0.02 µM) | 1.19
Cc1cn(-c2cc(NC(=O)c3ccc(C)c(Nc4nccc(-c5cccnc5)n4)c3)cc(C(F)(F)F)c2)cn1 [Nilotinib] + Nc1nc2[nH]cc(CCc3ccc(C(=O)N[C@@H](CCC(=O)O)C(=O)O)cc3)c2c(=O)[nH]1 [Pemetrexed] (partner 0.2 µM) | 0.607
Cc1cn(-c2cc(NC(=O)c3ccc(C)c(Nc4nccc(-c5cccnc5)n4)c3)cc(C(F)(F)F)c2)cn1 [Nilotinib] + CS(=O)(=O)CCNCc1ccc(-c2ccc3ncnc(Nc4ccc(OCc5cccc(F)c5)c(Cl)c4)c3c2)o1 [Lapatinib] (partner 2 µM) | 0.9
Cc1cn(-c2cc(NC(=O)c3ccc(C)c(Nc4nccc(-c5cccnc5)n4)c3)cc(C(F)(F)F)c2)cn1 [Nilotinib] + O=C(CCCCCCC(=O)Nc1ccccc1)NO [Vorinostat] (partner 1 µM) | 0.616

----------
relative viability values by entry
- Test system: ABC-1
- Measurement description: relative viability (nuclei count vs DMSO), 5 days (fraction); higher = more cells survive
- Experimental parameters: first compound 0.2 µM

Compound | relative viability
CCNC(=O)c1noc(-c2cc(C(C)C)c(O)cc2O)c1-c1ccc(CN2CCOCC2)cc1 [Luminespib] + N=C(N)NC(=N)NCCc1ccccc1 [Phenformin] (partner 250 µM) | 0.233
CN1CCN(CCOc2cc(OC3CCOCC3)c3c(Nc4c(Cl)ccc5c4OCO5)ncnc3c2)CC1 [Saracatinib] + COc1cccc2cc(-c3nc([C@H]4CC[C@H](C(=O)O)CC4)n4ncnc(N)c34)[nH]c12 [OSI-027] (partner 0.5 µM) | 0.65
CN1CCN(CCOc2cc(OC3CCOCC3)c3c(Nc4c(Cl)ccc5c4OCO5)ncnc3c2)CC1 [Saracatinib] + CC(=O)c1c(C)c2cnc(Nc3ccc(N4CCNCC4)cn3)nc2n(C2CCCC2)c1=O [Palbociclib] (partner 0.5 µM) | 0.646
Cc1csc(=NC2CCCCC2)n1/N=C/c1ccc(O)c(O)c1O [MIM1] + NC(=O)Nc1cc(-c2cccc(F)c2)sc1C(=O)N[C@H]1CCCNC1 [AZD7762] (partner 0.2 µM) | 0.664
Cc1csc(=NC2CCCCC2)n1/N=C/c1ccc(O)c(O)c1O [MIM1] + CS(=O)(=O)N1CCN(Cc2cc3nc(-c4cccc5[nH]ncc45)nc(N4CCOCC4)c3s2)CC1 [Pictilisib] (partner 1 µM) | 0.547
CCNC(=O)c1noc(-c2cc(C(C)C)c(O)cc2O)c1-c1ccc(CN2CCOCC2)cc1 [Luminespib] + CC(C)C[C@H](NC(=O)[C@H](Cc1ccccc1)NC(=O)c1cnccn1)B(O)O [Bortezomib] (partner 0.002 µM) | 0.255
CN1CCN(CCOc2cc(OC3CCOCC3)c3c(Nc4c(Cl)ccc5c4OCO5)ncnc3c2)CC1 [Saracatinib] + CS(=O)(=O)N1CCN(Cc2cc3nc(-c4cccc5[nH]ncc45)nc(N4CCOCC4)c3s2)CC1 [Pictilisib] (partner 1 µM) | 0.938

----------
- Test system: LC-2-ad
- Measurement description: relative viability (nuclei count vs DMSO), 5 days (fraction); higher = more cells survive
- Experimental parameters: first compound 0.6325 µM
So basically: is relative viability under 0.5? Then true. Not under? Then false.

Compound | Class
CN1CCN(CCOc2cc(OC3CCOCC3)c3c(Nc4c(Cl)ccc5c4OCO5)ncnc3c2)CC1 [Saracatinib] + Cc1cc(Nc2cc(N3CCN(C)CC3)nc(Sc3ccc(NC(=O)C4CC4)cc3)n2)n[nH]1 [Tozasertib] (partner 0.1 µM) | true
CN1CCN(CCOc2cc(OC3CCOCC3)c3c(Nc4c(Cl)ccc5c4OCO5)ncnc3c2)CC1 [Saracatinib] + Nc1ncn([C@H]2C[C@H](O)[C@@H](CO)O2)c(=O)n1 [Decitabine] (partner 2 µM) | false
CN1CCN(CCOc2cc(OC3CCOCC3)c3c(Nc4c(Cl)ccc5c4OCO5)ncnc3c2)CC1 [Saracatinib] + O=C(CCCCCCC(=O)Nc1ccccc1)NO [Vorinostat] (partner 1 µM) | false
Cc1csc(=NC2CCCCC2)n1/N=C/c1ccc(O)c(O)c1O [MIM1] + Nc1ncn([C@H]2C[C@H](O)[C@@H](CO)O2)c(=O)n1 [Decitabine] (partner 2 µM) | false
Cc1csc(=NC2CCCCC2)n1/N=C/c1ccc(O)c(O)c1O [MIM1] + Cc1cc(Nc2cc(N3CCN(C)CC3)nc(Sc3ccc(NC(=O)C4CC4)cc3)n2)n[nH]1 [Tozasertib] (partner 0.1 µM) | true
CN1CCN(CCOc2cc(OC3CCOCC3)c3c(Nc4c(Cl)ccc5c4OCO5)ncnc3c2)CC1 [Saracatinib] + Cc1nc(Nc2ncc(C(=O)Nc3c(C)cccc3Cl)s2)cc(N2CCN(CCO)CC2)n1 [Dasatinib] (partner 0.075 µM) | false
CN1CCN(CCOc2cc(OC3CCOCC3)c3c(Nc4c(Cl)ccc5c4OCO5)ncnc3c2)CC1 [Saracatinib] + CS(=O)(=O)N1CCN(Cc2cc3nc(-c4cccc5[nH]ncc45)nc(N4CCOCC4)c3s2)CC1 [Pictilisib] (partner 1 µM) | true
Cc1csc(=NC2CCCCC2)n1/N=C/c1ccc(O)c(O)c1O [MIM1] + Cc1nc(NC(=O)N2CCC[C@H]2C(N)=O)sc1-c1ccnc(C(C)(C)C(F)(F)F)c1 [Alpelisib] (partner 2 µM) | false
Cc1csc(=NC2CCCCC2)n1/N=C/c1ccc(O)c(O)c1O [MIM1] + CC(=O)c1c(C)c2cnc(Nc3ccc(N4CCNCC4)cn3)nc2n(C2CCCC2)c1=O [Palbociclib] (partner 0.5 µM) | true
Cc1csc(=NC2CCCCC2)n1/N=C/c1ccc(O)c(O)c1O [MIM1] + Nc1nc2[nH]cc(CCc3ccc(C(=O)N[C@@H](CCC(=O)O)C(=O)O)cc3)c2c(=O)[nH]1 [Pemetrexed] (partner 0.2 µM) | true

----------
- Test system: NCI-H1755
- Measurement description: relative viability (nuclei count vs DMSO), 5 days (fraction); higher = more cells survive
- Experimental parameters: first compound 0.01 µM
Friendly reminder: relative viability below 1 is yes (1), at or above is no (0).

Compound | Assay system | Class
Cc1cn(-c2cc(NC(=O)c3ccc(C)c(Nc4nccc(-c5cccnc5)n4)c3)cc(C(F)(F)F)c2)cn1 [Nilotinib] + O=C(c1cc(Cc2n[nH]c(=O)c3ccccc23)ccc1F)N1CCN(C(=O)C2CC2)CC1 [Olaparib] (partner 8 µM) | NCI-H1755 | yes (1)
Cc1cn(-c2cc(NC(=O)c3ccc(C)c(Nc4nccc(-c5cccnc5)n4)c3)cc(C(F)(F)F)c2)cn1 [Nilotinib] + CS(=O)(=O)CCNCc1ccc(-c2ccc3ncnc(Nc4ccc(OCc5cccc(F)c5)c(Cl)c4)c3c2)o1 [Lapatinib] (partner 2 µM) | NCI-H1755 | no (0)
Cc1cn(-c2cc(NC(=O)c3ccc(C)c(Nc4nccc(-c5cccnc5)n4)c3)cc(C(F)(F)F)c2)cn1 [Nilotinib] + Cc1nc(Nc2ncc(C(=O)Nc3c(C)cccc3Cl)s2)cc(N2CCN(CCO)CC2)n1 [Dasatinib] (partner 0.075 µM) | NCI-H1755 | yes (1)
Cc1cn(-c2cc(NC(=O)c3ccc(C)c(Nc4nccc(-c5cccnc5)n4)c3)cc(C(F)(F)F)c2)cn1 [Nilotinib] + C[C@]1(O)C[C@@H](c2nc(-c3ccc4ccc(-c5ccccc5)nc4c3)c3c(N)nccn32)C1 [Linsitinib] (partner 1 µM) | NCI-H1755 | no (0)
Cc1cn(-c2cc(NC(=O)c3ccc(C)c(Nc4nccc(-c5cccnc5)n4)c3)cc(C(F)(F)F)c2)cn1 [Nilotinib] + C[C@@H](Oc1cc(-c2cnn(C3CCNCC3)c2)cnc1N)c1c(Cl)ccc(F)c1Cl [Crizotinib] (partner 1 µM) | NCI-H1755 | no (0)

These entries and their values trace back to the supplement of paper PMC10307832.
